Below, pIC50 values reported for Receptor-type tyrosine-protein phosphatase C (Homo sapiens, UniProt P08575) across several publications.
pIC50: −log10 of the molar value.

O=C(O)c1ccc(CC(Cc2ccc(C(F)(F)P(=O)(O)O)cc2)(C(=O)c2ccccc2)c2ccccc2)cc1 (configuration not stated)    < 4.30
Cc1ccc(CSc2ccsc2C(=O)O)cc1C    < 3.92
NCC(=O)Nc1cccc(C#Cc2ccc(C(=O)O)c(SCc3ccc(Cl)c(Cl)c3)c2)c1    < 4.00
O=C(Nc1cccc(F)c1)c1ccc2cc(Br)c(C(F)(F)P(=O)(O)O)cc2n1    < 4.30
O=C(O)c1sccc1NCc1ccc(Cl)c(Cl)c1    < 3.92

Sample CS(=O)(=O)NC(=O)c1ccccc1SCc1ccc(Cl)c(Cl)c1 — what was its pIC50?
< 4.00

And then COc1cccc(C#Cc2c(-c3ccccc3)oc3cc(O)c(C(=O)O)cc23)c1 , what is it?
< 4.00
